Target: Fatty-acid amide hydrolase 1 (Rattus norvegicus, UniProt P97612)
Sequence (P97612 whole entry): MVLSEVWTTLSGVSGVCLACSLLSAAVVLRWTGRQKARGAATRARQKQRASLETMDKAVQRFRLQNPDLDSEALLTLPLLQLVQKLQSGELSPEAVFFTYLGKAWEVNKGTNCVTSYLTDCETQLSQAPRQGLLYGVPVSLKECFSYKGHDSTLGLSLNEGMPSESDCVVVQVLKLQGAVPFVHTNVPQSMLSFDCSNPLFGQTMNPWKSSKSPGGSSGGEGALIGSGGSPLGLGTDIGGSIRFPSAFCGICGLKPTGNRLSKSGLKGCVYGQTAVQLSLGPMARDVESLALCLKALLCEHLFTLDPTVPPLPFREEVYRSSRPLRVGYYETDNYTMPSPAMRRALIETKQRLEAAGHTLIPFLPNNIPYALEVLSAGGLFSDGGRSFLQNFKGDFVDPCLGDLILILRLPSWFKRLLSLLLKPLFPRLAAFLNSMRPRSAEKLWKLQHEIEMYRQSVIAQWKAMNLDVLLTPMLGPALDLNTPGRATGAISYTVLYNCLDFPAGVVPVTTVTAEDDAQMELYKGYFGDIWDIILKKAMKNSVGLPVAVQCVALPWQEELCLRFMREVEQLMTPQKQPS
quantityName: IC50 (nM)

Below, 3 molecules whose answers are already recorded.
[
  {
    "smilesText": "O=C(NC1CCCCC1)Oc1cccc(C2=N[C@@H](Cc3c[nH]c4ccccc34)CO2)c1",
    "assayTarget": "Fatty-acid amide hydrolase 1 (Rattus norvegicus, UniProt P97612)",
    "unitsText": "nM",
    "IC50": 1900
  },
  {
    "smilesText": "COC(=O)[C@H]1COC(c2cccc(OC(=O)NC3CCCCC3)c2)=N1",
    "assayTarget": "Fatty-acid amide hydrolase 1 (Rattus norvegicus, UniProt P97612)",
    "unitsText": "nM",
    "IC50": 90
  },
  {
    "smilesText": "CCCNC(=O)Oc1cccc(C2=NCCO2)c1",
    "assayTarget": "Fatty-acid amide hydrolase 1 (Rattus norvegicus, UniProt P97612)",
    "unitsText": "nM",
    "IC50": 33
  }
]

1 = O=C(NC1CCCCC1)Oc1cccc(C2=N[C@@H](Cc3ccccc3)CO2)c1
2 = CC1(C)COC(c2cccc(OC(=O)NC3CCCCC3)c2)=N1
3 = C[C@@H]1CN=C(c2cccc(OC(=O)NC3CCCCC3)c2)O1
4 = O=C(NC1CCCCC1)Oc1cccc(C2=N[C@H](Cc3ccccc3)CO2)c1
5 = C[C@H]1COC(c2cccc(OC(=O)NC3CCCC3)c2)=N1
Query string: Hey, quick one: sort these by IC50, low to high? Enter labels, ranked according to the request.
Result string: 2, 3, 5, 4, 1
(2: 46 nM, 3: 73 nM, 5: 110 nM, 4: 590 nM, 1: 2100 nM)

P = O=C(NC1CCCCC1)Oc1cccc(C2=NCCO2)c1
Q = CCCNC(=O)Oc1cccc(-c2nc3ncncc3o2)c1
Query string: // compare: P vs Q , metric IC50, want the smaller # respond with the chosen item's label
Result string: P

I = COC(=O)[C@@H]1COC(c2cccc(OC(=O)NC3CCCCC3)c2)=N1
II = CCCNC(=O)Oc1cccc(-c2nc3ccccc3o2)c1
Query string: Of I and II , whose reported IC50 is the larger number? # respond with the chosen item's label
Result string: II

----------
target: Monoglyceride lipase (Rattus norvegicus) (UniProt Q8R431); experiment: Inhibition of MGL in Wistar rat cerebellar membrane at 100 uM by reversed-phase HPLC relative to control; type: cell membranes; settings: Cerebellum
Sequence (Q8R431 whole entry): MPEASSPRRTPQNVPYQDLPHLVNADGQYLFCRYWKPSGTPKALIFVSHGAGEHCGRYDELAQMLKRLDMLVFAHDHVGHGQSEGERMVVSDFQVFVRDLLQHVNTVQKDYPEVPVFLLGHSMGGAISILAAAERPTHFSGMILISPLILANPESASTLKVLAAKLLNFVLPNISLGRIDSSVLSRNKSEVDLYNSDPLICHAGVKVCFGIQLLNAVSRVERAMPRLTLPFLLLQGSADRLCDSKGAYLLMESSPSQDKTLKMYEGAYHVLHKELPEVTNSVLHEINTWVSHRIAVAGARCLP
quantityName: inhibition (%)

[
  {
    "smilesText": "O=C(NC1CCCCC1)Oc1cccc(C2=N[C@@H](Cc3c[nH]c4ccccc34)CO2)c1",
    "unitsText": "%",
    "inhibition": 25
  }
]

A = C[C@H]1COC(c2cccc(OC(=O)NC3CCCCC3)c2)=N1
B = C[C@@H]1COC(c2cccc(OC(=O)NC3CCCCC3)c2)=N1
Query string: Of A and B , whose reported inhibition is the larger number? # respond with the chosen item's label
Result string: A
(A: 28%, B: 16%)

a = CC1(C)COC(c2cccc(OC(=O)NC3CCCCC3)c2)=N1
b = COC(=O)[C@H]1COC(c2cccc(OC(=O)NC3CCCCC3)c2)=N1
c = O=C(NC1CCCCC1)Oc1cccc(C2=N[C@H](Cc3ccccc3)CO2)c1
Query string: Order the items by recorded inhibition; the first position goes to the largest value. Enter labels, ranked according to the request.
Result string: b, a, c

a = C[C@H]1COC(c2cccc(OC(=O)NC3CCCC3)c2)=N1
b = O=C(NC1CCCCC1)Oc1cccc(C2=N[C@@H](Cc3ccccc3)CO2)c1
Query string: Of a and b , whose reported inhibition is the larger number? # respond with the chosen item's label
Result string: a

----------
target: Monoglyceride lipase (Rattus norvegicus) (UniProt Q8R431); assay: Inhibition of MGL in Wistar rat cerebellar membrane at 100 uM by reversed-phase HPLC relative to control; assay type: cell membranes; conditions: Cerebellum
quantityName: inhibition (%)

[
  {
    "smilesText": "COC(=O)[C@@H]1COC(c2cccc(OC(=O)NC3CCCCC3)c2)=N1",
    "assayTarget": "Monoglyceride lipase (Rattus norvegicus) (UniProt Q8R431)",
    "inhibition / %": 25
  },
  {
    "smilesText": "O=C(NC1CCCCC1)Oc1cccc(C2=NCCO2)c1",
    "assayTarget": "Monoglyceride lipase (Rattus norvegicus) (UniProt Q8R431)",
    "inhibition / %": 22
  },
  {
    "smilesText": "CC1(C)COC(c2cccc(OC(=O)NC3CCCC3)c2)=N1",
    "assayTarget": "Monoglyceride lipase (Rattus norvegicus) (UniProt Q8R431)",
    "inhibition / %": 28
  },
  {
    "smilesText": "CCCNC(=O)Oc1cccc(-c2nc3ncccc3o2)c1",
    "assayTarget": "Monoglyceride lipase (Rattus norvegicus) (UniProt Q8R431)",
    "inhibition / %": 29
  },
  {
    "smilesText": "CCCNC(=O)Oc1cccc(C2=NCCO2)c1",
    "assayTarget": "Monoglyceride lipase (Rattus norvegicus) (UniProt Q8R431)",
    "inhibition / %": 32
  },
  {
    "smilesText": "CCCNC(=O)Oc1cccc(-c2nc3ccccc3o2)c1",
    "assayTarget": "Monoglyceride lipase (Rattus norvegicus) (UniProt Q8R431)",
    "inhibition / %": 26
  }
]

This collection of values is drawn from ChEMBL document CHEMBL1154092.
